- ASSAY TARGET: T1, Hof1, Q05080
- T1 sequence (Q05080 590-669, looked up): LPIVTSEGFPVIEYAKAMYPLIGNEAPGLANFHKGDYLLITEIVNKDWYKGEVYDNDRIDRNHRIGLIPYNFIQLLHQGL
- PROCEDURE DETAILS: SPOT array
- ASSAY SETUP: median of control spots 4086
EXPERIMENTAL READOUT: SPOT intensity

> print(dat)
            binder  experimental.readout  readout.value
1  KFIPSRPAPKPPSSA        SPOT intensity              0
2  TKFRISLGLPVGAIM        SPOT intensity              0

[A] QFDLKMPSKPIHNLK
[B] SGVRLPAPPPPPRRG
[C] FVLRYYILIPHEQWD
[D] EQEEIAPSLPSRNSI
[E] VQQDSLPKLPFRSWG
Endpoint returns the given binders ordered by ascending SPOT intensity. Please list the labels according to the requested order.
A, D, C, B, E
(A: 0, D: 2, C: 5, B: 633, E: 1570)
